Attribution: ChEMBL document CHEMBL1201862

Tested on: Malme-3M
assay-details: NCI tumour cell line growth inhibition, 48 h
Calls of active or inactive are those of the source. Cut-off read from the data, not from the text of the source: active = GI50 up to about 1.1 µM and inactive = higher.
Please answer using one outcome listed in 1 (yes) = active, 0 (no) = inactive

A selection of reference data follows.
- compound: "c1ccc2c(c1)-c1nc3ccccc3cc1C2N1CCOCC1 (stereo not drawn)"
  assigned-category: "0 (no)"
- compound: "CC1=NN(C(=O)CC(=O)Nc2ccccc2C)C(=O)C1/N=N\\c1ccc(S(=O)(=O)c2ccc(/N=N/C3C(=O)N(C(=O)CC(=O)Nc4ccccc4C)N=C3C)cc2)cc1 (stereo not drawn)"
  assigned-category: "0 (no)"
- compound: "CC1=CC2=C(OCO1)C(=O)c1ccccc1C2=O"
  assigned-category: "0 (no)"
- compound: "CCOC(=O)C(Oc1ccc(OC)c2c1C(=O)CCC2)c1ccccc1 (stereo not drawn)"
  assigned-category: "0 (no)"
- compound: "COc1ccc(-c2c(N)n(-c3nc4ccccc4s3)c(=O)c3cc([N+](=O)[O-])ccc23)cc1"
  assigned-category: "0 (no)"
- compound: "COc1ccc(N2C(=O)C3c4[nH]c5ccc(OCc6ccccc6)cc5c4C4CCC(C(C)C)CC4C3C2=O)cc1 (stereo not drawn)"
  assigned-category: "0 (no)"
- compound: "Fc1ccc(Oc2nc3ccc(C(F)(F)F)cc3nc2-c2ccccc2)cc1"
  assigned-category: "0 (no)"
- compound: "CC(=O)Nc1ccc(-c2nc3ccccc3s2)cc1I"
  assigned-category: "0 (no)"
- compound: "CS[C@]12[C@@H]3C(=O)N(C)C(=O)[C@@H]3[C@](C)(C(=O)N1C)C(=O)N2c1ccccc1"
  assigned-category: "0 (no)"
- compound: "Nc1n[nH]c(N)n1 [GUANAZOLE]"
  assigned-category: "0 (no)"

Lookup: // return assay outcome for COC(C)(C)C(O)C(O)C[C@H](C)C1CC=C2C1(C)CCC1[C@@]3(C)CCC(OC(C)=O)C(C)(C)C3CC(OC3OC(COC(C)=O)C(O)C(O)C3O)[C@@]21C (stereo partly drawn)
Found: 0 (no)

Lookup: Check Cc1ccc(C)c(N2C(=O)C(=O)C(c3nc4ccccc4o3)/C(=N/N)C2=O)c1 (stereo not drawn) too.
Found: 0 (no)

----------
// reported GI50 for each item listed
Tested on: Hs-578T
assay-details: NCI tumour cell line growth inhibition, 48 h
Calls of active or inactive are those of the source. Cut-off read from the data, not from the text of the source: active = GI50 up to about 1.1 µM and inactive = higher.

Guide cases for GI50, answers given:
- compound: "O=C1CC(=O)NC(NN2C(=O)CSC2C(=O)c2ccco2)=N1 (stereo not given)"
  GI50: "> 100 µM (inactive)"
- compound: "COC(C)(C)C(O)C(O)C[C@H](C)C1CC=C2C1(C)CCC1[C@@]3(C)CCC(OC(C)=O)C(C)(C)C3CC(OC3OC(COC(C)=O)C(O)C(O)C3O)[C@@]21C (stereo not given in full)"
  GI50: "4.37 µM (inactive)"
- compound: "O=C1C(CO)=C(CO)C(=O)c2c(O)ccc(O)c21"
  GI50: "1.45 µM (inactive)"
- compound: "CS[C@]12[C@@H]3C(=O)N(C)C(=O)[C@@H]3[C@](C)(C(=O)N1C)C(=O)N2c1ccccc1"
  GI50: "> 100 µM (inactive)"

Alright, here's another compound for you.
Lookup: Fill in: GI50 of `CSC(SC)=C(C#N)C(=O)Nc1ccc(Cl)cc1` is ___
Found: > 100 µM (inactive)

----------
System: SF-268
assay-details: NCI tumour cell line growth inhibition, 48 h
The source made the active and inactive calls. Rule as the data show it: active = GI50 up to about 1.1 µM and inactive = higher.
// reported GI50 for each item listed

Guide cases for GI50, answers given:
- molecule: "C(=N\\OCCc1ccccc1)/c1cccnc1"
  GI50: "> 100 µM (inactive)"
- molecule: "COc1ccc(C(CC(=O)c2ccc(O)cc2)C(C(=O)c2ccc(O)cc2)C(c2ccc(OC)cc2)C2C(=O)NC(=S)NC2=O)cc1 (stereo not given)"
  GI50: "15.7 µM (inactive)"
- molecule: "Cc1ccc(S(=O)(=O)N/N=C(\\c2nc3ccc([N+](=O)[O-])cc3[nH]c2=O)C(O)c2ccc([N+](=O)[O-])cc2)cc1 (stereo not given)"
  GI50: "63.5 µM (inactive)"

Lookup: Fill in: GI50 of CCN(CC)CC(C(=O)Nc1c(C)cccc1C)/C(C)=N/NC(N)=S (stereo not given) is ___
Found: > 100 µM (inactive)

----------
System: CAKI-1
assay-details: NCI tumour cell line growth inhibition, 48 h
The source made the active and inactive calls. Cut-off read from the data, not from the text of the source: active = GI50 up to about 1.1 µM and inactive = higher.
Please answer using one outcome listed in YES = active, NO = inactive

A selection of reference data follows.
- compound: "CCn1c(=O)nc2n(-c3ccccc3)c3ccccc3nc-2c1=O"
  assigned-category: "NO"
- compound: "CCOC(=O)c1nc2ccccc2nc1Nc1ccc(OC)cc1"
  assigned-category: "NO"
- compound: "COC(=O)c1c(OC)cc2cc3c(c(O)c2c1C)C(=O)C1(O)C(=O)C=C(OC)C(OC(=O)CC(C)N)=C1C3=O (stereo unspecified)"
  assigned-category: "NO"

Lookup: // return assay outcome for `C/C=C(/I)CBr`
Found: YES

----------
Tested on: HL-60
assay-details: NCI tumour cell line growth inhibition, 48 h
The source made the active and inactive calls. No stated cut-off is given here; in the data, active = GI50 up to about 1.1 µM and inactive = higher.
Please answer using one outcome listed in T = active, F = inactive

A selection of reference data follows.
- molecule: "O=c1cc(/N=N\\c2ccc(Br)cc2)[nH]c(=S)[nH]1"
  measured-target: "HL-60"
  assigned-category: "F"
- molecule: "COC(=O)C1Cc2ccc3c(c2C1=O)CCCC3 (stereo unspecified)"
  measured-target: "HL-60"
  assigned-category: "F"

Lookup: // return assay outcome for `CCCCCN(CCCCC)C(=O)[C@@H](CCC(=O)O)NC(=O)c1cc2ccccc2[nH]1`
Found: F

Lookup: Check `C=CCNc1nc2c(s1)C(=O)c1ccccc1C2=O` too.
Found: F

Lookup: Check `CC(=O)Nc1[nH]c(=O)[nH]c(=O)c1N(C(C)=O)C(C)=O` too.
Found: F

Lookup: Check `OCCN(CCO)c1cccc(N(CCO)CCO)n1` too.
Found: F

Lookup: Check `O=C(O)c1ccc(NCc2nc3cc4ccccc4cc3[nH]2)cc1` too.
Found: F

Lookup: Check `Clc1cc(Cl)cc(Nc2nc3ccccc3nc2-c2cccs2)c1` too.
Found: F

Lookup: Check COc1cc(C(=O)NC2CCc3cc(OC)c(OC)c(OC)c3-c3ccc(OC)c(=O)cc32)cc(OC)c1OC (stereo unspecified) too.
Found: T

Lookup: Check COC(=O)C(Cc1nc2ccc(Cl)cc2nc1O)C(=O)C(=O)Nc1cc(C)ccc1C (stereo unspecified) too.
Found: F

Lookup: Check O=C(O)C12C=CC(C1)c1ccccc12 (stereo unspecified) too.
Found: F

----------
Test system: RXF 631
assay-details: NCI tumour cell line growth inhibition, 48 h
The source made the active and inactive calls. Cut-off read from the data, not from the text of the source: active = GI50 up to about 1.1 µM and inactive = higher.
measurement-kind: GI50

Lookup: Fill in: GI50 of COc1ccc(C2N(NC(=O)c3ccncc3)C(=O)CS2(=O)=O)cc1F (centres undefined) is ___
Found: > 100 µM (inactive)

Lookup: Check Cc1ccc(NC(=O)CCC(=O)C2CC(=O)CC/C2=N\NC(=O)c2cc3ccccc3cc2O)cc1C (centres undefined) too.
Found: 32.6 µM (inactive)

Lookup: Check CSCCC(C(=O)O)N(CC1(O)OCC(O)C(O)C1O)N=O (centres undefined) too.
Found: > 100 µM (inactive)

Lookup: Check `Cc1cc2c(cc1C)[n+]([O-])c(-c1c(Cl)cccc1Cl)c(N)[n+]2[O-]` too.
Found: 18.2 µM (inactive)

Lookup: Check `CCCCn1c(-c2ccccc2)cs/c1=N\N=C1C=C(C(C)(C)C)C(=O)C(C(C)(C)C)=C1` too.
Found: > 100 µM (inactive)

Lookup: Check `Cc1ccc(CCC(=O)C(=O)O)s1` too.
Found: > 100 µM (inactive)

Lookup: Check O=C1OC(CC(=O)c2ccccc2Cl)C(Cl)=C1Cl (centres undefined) too.
Found: 62.4 µM (inactive)

Lookup: Check `CCOC(=O)NC(=O)c1cn(CCN2CCN(C(=O)NCCCCCCNC(=O)N3CCN(CCn4cc(C(=O)NC(=O)OCC)c(=O)[nH]c4=O)CC3)CC2)c(=O)[nH]c1=O` too.
Found: > 100 µM (inactive)

Lookup: Check `O=C(O)CN(c1ccccc1)S(=O)(=O)c1ccc([N+](=O)[O-])cc1` too.
Found: > 100 µM (inactive)

----------
Tested on: U-251
assay-details: NCI tumour cell line growth inhibition, 48 h
The source made the active and inactive calls. Cut-off read from the data, not from the text of the source: active = GI50 up to about 1.1 µM and inactive = higher.
Please answer using one outcome listed in true (1) (active), false (0) (inactive)

A selection of reference data follows.
- compound: "ClCCCSSCCCCl"
  assigned-category: "false (0)"
- compound: "O=C1c2ccccc2C(=O)c2cc3c(cc21)C[S+]([O-])C3"
  assigned-category: "false (0)"

Lookup: // return assay outcome for `c1ccc2c(c1)CCc1c-2n(CCN2CCCCC2)c2ccccc12`
Found: false (0)

Lookup: Check `O=C1CCCCC/C1=C\c1cccc(F)c1` too.
Found: false (0)

Lookup: Check `O=C(O)c1ccc(NCc2nc3cc4ccccc4cc3[nH]2)cc1` too.
Found: false (0)
